Provide the reported half-life of each item.
test: Pharmacokinetics test in rats
Format: in vivo, rat
measurementParameters: both sexes, rat, plasma, intravenous, 10 mg/kg as free alkali, n=6
Where a name gives a salt, the structure may show the parent alone.
Numbers only, in h.

compound | endpointName | resultValue
Nc1c(Br)cc(Br)cc1CN[C@H]1CC[C@H](O)CC1 [Ambroxol hydrochloride, reference compound] | half-life | 1.98
Nc1c(Br)cc(Br)cc1CN[C@@H]1CCC[C@H]1O | half-life | 3.12
Nc1c(Br)cc(Br)cc1CNC1C2CC3CC1CC(O)(C3)C2 (stereo not shown) | half-life | 3.43

Query compound follows.
stdin: Respond only with half-life recorded for Nc1c(Br)cc(Br)cc1CNC12CC3CC(CC(O)(C3)C1)C2
stdout: 3.58
